Species: Rattus norvegicus
assay text: DrugMatrix - Regimen: Daily Repeat
Format: toxicity, organism-based, Sprague-Dawley
Parameters: regimen Daily Repeat, gender Male, age 6-8 weeks
protocol conditions: in vivo, sc, 0 mg/kg, 120 h, tissue Blood, route subcutaneous, dose level Control, time 5 day, […]
test readout: ERYTHROCYTE COUNT (x10E6/uL)

compound: CCC(=O)O[C@]1(C(=O)CCl)[C@@H](C)C[C@H]2[C@@H]3CCC4=CC(=O)C=C[C@]4(C)[C@@]3(F)[C@@H](O)C[C@@]21C [CLOBETASOL PROPIONATE]
observed result: 5.52
//
compound: Oc1c(Cl)cc(Cl)c(Cl)c1Cc1c(O)c(Cl)cc(Cl)c1Cl
observed result: 5.72
//
compound: CC(C)(C)CC(C)(C)c1ccc(OCCOCC[N+](C)(C)Cc2ccccc2)cc1.[Cl-] [BENZETHONIUM CHLORIDE]
observed result: 5.72
//
compound: O=C(Nc1ccc(Br)cc1)c1cc(Br)cc(Br)c1O
observed result: 5.52
//
compound: CCN(CC)CCOCCC1=CCC2CC1C2(C)C (stereo not given)
observed result: 5.35
